The values you see were collected from patent US20130225488A1.

# Assayed System: Human GLP-1 receptor (human, UniProt P43220 24-463)
# Sequence (P43220 24-463): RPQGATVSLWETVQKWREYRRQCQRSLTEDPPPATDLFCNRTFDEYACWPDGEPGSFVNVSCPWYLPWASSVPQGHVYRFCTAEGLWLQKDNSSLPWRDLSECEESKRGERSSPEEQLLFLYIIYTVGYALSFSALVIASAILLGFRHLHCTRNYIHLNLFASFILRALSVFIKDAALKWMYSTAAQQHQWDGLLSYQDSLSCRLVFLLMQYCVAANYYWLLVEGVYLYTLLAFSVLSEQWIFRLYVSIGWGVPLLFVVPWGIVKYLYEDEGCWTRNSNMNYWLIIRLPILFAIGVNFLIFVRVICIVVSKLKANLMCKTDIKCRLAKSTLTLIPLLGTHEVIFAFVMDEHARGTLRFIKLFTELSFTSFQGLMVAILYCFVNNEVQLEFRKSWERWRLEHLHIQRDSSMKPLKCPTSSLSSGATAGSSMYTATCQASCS
# Assay Notes: cell-based or functional assay
Where no end group is shown, it is not given here. [ ]: non-standard residue; d: D form. αMePhe(2-F) = C[C@](N)(Cc1ccccc1F)C(=O)O; Aib = CC(C)(N)C(=O)O
Readout Label: cAMP release, % activity with respect to control; test compound 1 nM (%)

Illustrative cases are given below, each with its answer.
H[Aib]QGTFTSD[Bip(OMe)][Bip(2CF3)] [Seq. ID. No. 16: H-Aib-QGTFTSD-Bip(OMe)-Bip(2CF3)]
69
HSQGTFTSD[Bip(OMe)][Bip(2CF3)] (not fully specified (C-terminus); printed as HSQGTFTSD-Bip(OMe)-Bip(2CF3)) [Seq. ID. No. 8: HSQGTFTSD-Bip(OMe)-Bip(2CF3)]
40
HSQGTFTSD[Bip(OMe)][Bip(2Me)]-NH2 [Seq. ID. No. 5: HSQGTFTSD-Bip(OMe)-Bip(2Me)]
38

(a) HAQGT[αMePhe(2-F)]TSD[Bip(OMe)][Bip(2F)] [Seq. ID. No. 27: HAQGT-(α-Me-2F-Phe)-TSD-Bip(OMe)-Bip(2F)]
(b) HAQGTFTSD[Bip(OMe)][Bip(2F)] [Seq. ID. No. 11: HAQGTFTSD-Bip(OMe)-Bip(2F)]
Given the listed records, identify the one among a and b with higher cAMP release, % activity with respect to control; test compound 1 nM. Respond using the label that marks the chosen record.
a
(a: 82%, b: 51%)
